CONDITION CONTEXT: human gut metagenome, 24 h, 2 µM; further: call rule not given here
METRIC NAME: Bacterial Biotransformation

Recorded results for 6 compounds are shown here.
{"columns": ["COMPOUND", "Bacterial Biotransformation"],
 "data": [
  ["COc1ccc2c3c1O[C@H]1C[C@@H](O)C=C[C@@]31CCN(C)C2 [GALANTAMINE]", "Compound NOT metabolized"],
  ["CN1C[C@H](C(=O)N[C@]2(C)O[C@@]3(O)[C@@H]4CCCN4C(=O)[C@H](Cc4ccccc4)N3C2=O)C=C2c3cccc4[nH]cc(c34)C[C@H]21.CN1C[C@H](C(=O)N[C@]2(C)O[C@@]3(O)[C@@H]4CCCN4C(=O)[C@H](Cc4ccccc4)N3C2=O)C=C2c3cccc4[nH]cc(c34)C[C@H]21.O=C(O)C(O)C(O)C(=O)O [ERGOTAMINE TARTRATE]", "Compound metabolized"],
  ["CCC1(c2ccc(N)cc2)CCC(=O)NC1=O (configuration not stated) [AMINOGLUTETHIMIDE]", "Compound NOT metabolized"],
  ["O=C1[C@H](CC[C@H](O)c2ccc(F)cc2)[C@@H](c2ccc(O)cc2)N1c1ccc(F)cc1 [EZETIMIBE]", "Compound NOT metabolized"],
  ["CS(=O)(=O)O.OC(CCN1CCCCC1)(c1ccccc1)c1ccccc1 [PRIDINOL METHANESULFONATE]", "Compound NOT metabolized"],
  ["COC(=O)Nc1nc2ccc(C(=O)c3ccccc3)cc2[nH]1 [MEBENDAZOLE]", "Compound metabolized"]
]}

## Task // returns reported Bacterial Biotransformation for input OCCN1CCN(CCCN2c3ccccc3Sc3ccc(C(F)(F)F)cc32)CC1 [FLUPHENAZINE]
## Result Compound metabolized

----------
ASSAY REMARKS: The drug is tested on Z-011 corresponding to mouse gut metagenome with ENA study accession number: PRJEB37062 and ENA sample accession number: ERS12561811 for biotransformation under anaerobic condition. The drug concentrations were measured over 9 timepoints collected between 0 and 24 hours of incubation by liquid-chromatography-coupled mass spectrometry (LC–MS)
CONDITION CONTEXT: 2 µM
METRIC NAME: Bacterial Biotransformation

Recorded results for 5 molecules are shown here.
{"columns": ["MOLECULE", "Bacterial Biotransformation"],
 "data": [
  ["CN1CCOC(c2ccccc2)c2ccccc2C1 (stereo unspecified)", "Compound NOT metabolized"],
  ["CCN(CC)CCNC(C(=O)OCCC(C)C)c1ccccc1.Cl.Cl (stereo unspecified)", "Compound NOT metabolized"],
  ["Cc1cc2c(cc1S(N)(=O)=O)S(=O)(=O)CCC2", "Compound NOT metabolized"],
  ["COC(=O)[C@H]1[C@H]2C[C@@H]3c4[nH]c5cc(OC)ccc5c4CCN3C[C@H]2C[C@@H](OC(=O)c2cc(OC)c(OC)c(OC)c2)[C@@H]1OC", "Compound NOT metabolized"],
  ["CCN1CCCC1CNC(=O)c1cc(S(N)(=O)=O)ccc1OC (stereo unspecified) [SULPIRIDE]", "Compound metabolized"]
]}

## Task // returns reported Bacterial Biotransformation for input Nc1ccc(/N=N/c2ccccc2)c(N)n1
## Result Compound metabolized

## Task // returns reported Bacterial Biotransformation for input CCc1nn(CCCN2CCN(c3cccc(Cl)c3)CC2)c(=O)n1CCOc1ccccc1
## Result Compound NOT metabolized

## Task // returns reported Bacterial Biotransformation for input OCCN1CCN(CCCN2c3ccccc3Sc3ccc(C(F)(F)F)cc32)CC1
## Result Compound metabolized

## Task // returns reported Bacterial Biotransformation for input COc1cc2nc(N(C)CCCNC(=O)C3CCCO3)nc(N)c2cc1OC (stereo unspecified)
## Result Compound metabolized

## Task // returns reported Bacterial Biotransformation for input CN1CCN(C2=Nc3cc(Cl)ccc3Nc3ccccc32)CC1
## Result Compound NOT metabolized

## Task // returns reported Bacterial Biotransformation for input COc1ccc(CCN(C)CCCC(C#N)(c2ccc(OC)c(OC)c2)C(C)C)cc1OC (stereo unspecified)
## Result Compound NOT metabolized

## Task // returns reported Bacterial Biotransformation for input CN1CCC(=C2c3ccccc3CCc3cccnc32)CC1.O=C(O)/C=C\C(=O)O.O=C(O)/C=C\C(=O)O [AZATADINE MALEATE]
## Result Compound NOT metabolized

## Task // returns reported Bacterial Biotransformation for input Fc1ccc([C@@H]2CCNC[C@H]2COc2ccc3c(c2)OCO3)cc1
## Result Compound NOT metabolized

## Task // returns reported Bacterial Biotransformation for input COC1=CC(=O)C[C@@H](C)[C@]12Oc1c(Cl)c(OC)cc(OC)c1C2=O
## Result Compound metabolized

## Task // returns reported Bacterial Biotransformation for input COc1ccccc1OCC(O)CN1CCN(CC(=O)Nc2c(C)cccc2C)CC1 (stereo unspecified)
## Result Compound NOT metabolized

## Task // returns reported Bacterial Biotransformation for input CNC(=C[N+](=O)[O-])NCCSCc1ccc(CN(C)C)o1
## Result Compound metabolized

## Task // returns reported Bacterial Biotransformation for input Cc1ccc(-c2cc(C(F)(F)F)nn2-c2ccc(S(N)(=O)=O)cc2)cc1
## Result Compound NOT metabolized

## Task // returns reported Bacterial Biotransformation for input CCN(CC)C(C)CN1c2ccccc2Sc2ccccc21 (stereo unspecified)
## Result Compound NOT metabolized

## Task // returns reported Bacterial Biotransformation for input Cc1ccccc1N1C(=O)c2cc(S(N)(=O)=O)c(Cl)cc2NC1C (stereo unspecified)
## Result Compound NOT metabolized

## Task // returns reported Bacterial Biotransformation for input CCc1nc(N)nc(N)c1-c1ccc(Cl)cc1
## Result Compound NOT metabolized

## Task // returns reported Bacterial Biotransformation for input CCN(CC)CCOCCOC(=O)C1(c2ccccc2)CCCC1.O=C(O)CC(O)(CC(=O)O)C(=O)O [CARBETAPENTANE CITRATE]
## Result Compound NOT metabolized

## Task // returns reported Bacterial Biotransformation for input c1ccc([C@H]2CN3CCSC3=N2)cc1
## Result Compound NOT metabolized

## Task // returns reported Bacterial Biotransformation for input COc1ccccc1N1CCN(CC(O)COc2cccc3ccccc23)CC1 (stereo unspecified)
## Result Compound NOT metabolized

## Task // returns reported Bacterial Biotransformation for input COc1c(C)c2c(c(O)c1C/C=C(\C)CCC(=O)OCCN1CCOCC1)C(=O)OC2 [MYCOPHENOLATE MOFETIL]
## Result Compound metabolized

----------
ASSAY REMARKS: The drug is tested on Z-006 corresponding to mouse gut metagenome with ENA study accession number: PRJEB37062 and ENA sample accession number: ERS12561806 for biotransformation under anaerobic condition. The drug concentrations were measured over 9 timepoints collected between 0 and 24 hours of incubation by liquid-chromatography-coupled mass spectrometry (LC–MS)
CONDITION CONTEXT: 2 µM
METRIC NAME: Bacterial Biotransformation

{"columns": ["COMPOUND", "TEST VALUE"],
 "data": [
  ["OCCOCCN1CCN(C2=Nc3ccccc3Sc3ccccc32)CC1", "Compound NOT metabolized"],
  ["CCCC1O[C@@H]2C[C@H]3[C@@H]4CCC5=CC(=O)C=C[C@]5(C)[C@H]4[C@@H](O)C[C@]3(C)[C@]2(C(=O)CO)O1 (some centres undefined) [BUDESONIDE]", "Compound NOT metabolized"],
  ["CCN(CC)CC#CCOC(=O)C(O)(c1ccccc1)C1CCCCC1.Cl (centres undefined) [OXYBUTYNIN CHLORIDE]", "Compound NOT metabolized"]
]}

----------
ASSAY REMARKS: The drug is tested on Z-021 corresponding to metagenome with ENA study accession number: PRJEB37062 and ENA sample accession number: ERS12561820 for biotransformation under anaerobic condition. The drug concentrations were measured over 9 timepoints collected between 0 and 24 hours of incubation by liquid-chromatography-coupled mass spectrometry (LC–MS)
CONDITION CONTEXT: 2 µM
METRIC NAME: Bacterial Biotransformation

Recorded results for 4 compounds are shown here.
{"columns": ["COMPOUND", "Bacterial Biotransformation"],
 "data": [
  ["C[C@@H]1C[C@H]2[C@@H]3CCC4=CC(=O)C=C[C@]4(C)[C@@]3(F)[C@@H](O)C[C@]2(C)[C@@]1(O)C(=O)CO", "Compound metabolized"],
  ["COc1c2occc2cc2ccc(=O)oc12", "Compound metabolized"],
  ["CS(=O)(=O)O.OC(CCN1CCCCC1)(c1ccccc1)c1ccccc1 [PRIDINOL METHANESULFONATE]", "Compound NOT metabolized"],
  ["O=c1n(CCCN2CCN(c3cccc(Cl)c3)CC2)nc2ccccn12", "Compound NOT metabolized"]
]}

// next item, Bacterial Biotransformation requested
## Task // returns reported Bacterial Biotransformation for input C[C@@H]1CC[C@H]2[C@@H](C)C(=O)O[C@@H]3O[C@@]4(C)CC[C@@H]1[C@]32OO4
## Result Compound metabolized
